Catalogue of T/C readings, one per entry.
- Tested on: P388 leukemia ip, CD2F1 mice, survival T/C
- EXPERIMENT_DESCRIPTION: NCI In Vivo Anticancer Drug Screen. Data for tumor model P388 Leukemia (intraperitoneal) in CD2F1 (CDF1) mice
- CONDITION: endpoint: median survival time; dose: 25.0 mg/kg/injection; schedule: Q01DX005 (ip); vehicle: saline with Tween-80; higher = longer survival
Toxic doses and inconclusive results are not listed.

COMPOUND: COc1ccc2c(c1)C(NCCCCCCNc1cc(C)[n+](C)c3ccc(OC)cc13)=CC(C)N2C (stereo not given)
RESULT: 113 % of control

# T/C measured on P388 leukemia ip, CD2F1 mice, survival T/C for item Cc1cccc(NCc2ccncc2)n1 = 100 % of control

The measured T/C that CC(C)NC(=O)c1ccc(N/N=[N+](/C)[O-])cc1 showed for P388 leukemia ip, CD2F1 mice, survival T/C is 98 % of control

// returns T/C for O=C1C(=O)C(CN2CCOCC2)=C(N2CCOCC2)C(N2CCOCC2)=C1CN1CCOCC1 with P388 leukemia ip, CD2F1 mice, survival T/C; value = 100 % of control

T/C value, target or system P388 leukemia ip, CD2F1 mice, survival T/C, for O=Cc1cc(CCl)ccc1O : 110 % of control

Readout T/C for CCOc1ccc(N2C(N)=NC(N)=NC2(C)C)cc1 , test system P388 leukemia ip, CD2F1 mice, survival T/C, was 101 % of control

Considering COc1ccc2sc3cccc(NCCN(C)C)c3c(=O)c2c1 , its T/C with P388 leukemia ip, CD2F1 mice, survival T/C was recorded as 108 % of control

P388 leukemia ip, CD2F1 mice, survival T/C data for COc1cccc(Oc2ccc(C)c[n+]2CC(C)=O)c1 ; its T/C: 100 % of control

Lab entry: P388 leukemia ip, CD2F1 mice, survival T/C assay, compound CCN(CC)CCOc1ccc(C2=C(c3ccc(OC)cc3)Cc3cc(OC)ccc32)cc1 , T/C = 105 % of control

Record C=C1C(=C)C2OC1c1cc3c(cc12)C(=O)C=CC3=O ; system P388 leukemia ip, CD2F1 mice, survival T/C; T/C = 91 % of control

* * *

- Tested on: P388 leukemia ip, CD2F1 mice, survival T/C
- EXPERIMENT_DESCRIPTION: NCI In Vivo Anticancer Drug Screen. Data for tumor model P388 Leukemia (intraperitoneal) in CD2F1 (CDF1) mice
- CONDITION: endpoint: median survival time; dose: 240.0 mg/kg/injection; schedule: Q01DX005 (ip); vehicle: saline with Tween-80; higher = longer survival
Toxic doses and inconclusive results are not listed.
Entries and their T/C

Answered cases to consult:
MOLECULE: Cc1c(C(=O)CC2OC(=O)C(Cl)=C2Cl)c2ccccc2n1C(=O)Nc1ccc(Cl)cc1 (stereo not given)
RESULT: 94 % of control

MOLECULE: Cc1cc(C)n(C2=NS(=O)(=O)c3ccccc3N2C)n1
RESULT: 99 % of control

MOLECULE: O=C(Nc1c(Cl)cccc1Cl)Nc1c(Cl)cccc1Cl
RESULT: 94 % of control

MOLECULE: COc1ccc(/C=N/N2CN(C(CC(N)=O)C(=O)O)P(Nc3ncccn3)N=C2N)cc1OC (stereo not given)
RESULT: 95 % of control

MOLECULE: CC1CC(=O)Nc2ncnc(N)c21 (stereo not given)
RESULT: 108 % of control

The recorded T/C for COc1ccc(NC(=O)CCC(=O)CC(=O)c2ccncc2)cc1 is 93 % of control
